Test system: red blood cells
procedure-text: Hemolysis assay
Type: cell-based, Sprague-Dawley mouse
Where a SMILES comes first, the peptide text is derived from it. [ ]: non-standard residue; d: D form. Gly(N(CH2)2(3-indolyl)) = O=C(O)CNCCc1c[nH]c2ccccc12; Nspe = C[C@H](NCC(=O)O)c1ccccc1; Nlys = NCCCCNCC(=O)O
This listing pairs molecules with measured HC10.

- molecule: "C[C@@H](c1ccccc1)N(CC(=O)N(CCCCN)CC(=O)N(CCc1c[nH]c2ccccc12)CC(=O)N(CCc1c[nH]c2ccccc12)CC(N)=O)C(=O)CN(CCCCN)C(=O)CN(CCCCN)C(=O)CN(C(=O)CN(C(=O)CN(CCCCN)C(=O)CN(C(=O)CN(C(=O)CNCCCCN)[C@@H](C)c1ccccc1)[C@@H](C)c1ccccc1)[C@@H](C)c1ccccc1)[C@@H](C)c1ccccc1 [Peptoid 29-1] (H-[Nlys][Nspe][Nspe][Nlys][Nspe][Nspe][Nlys][Nlys][Nspe][Nlys][Gly(N(CH2)2(3-indolyl))][Gly(N(CH2)2(3-indolyl))]-NH2)"
  HC10: ">100/>100 μM"

query: Quickly give me recorded HC10 for C[C@@H](c1ccccc1)N(CC(=O)N(CCCCN)CC(=O)N(CC(=O)N(CC(=O)N(CCCCN)CC(=O)N(CC(=O)N(CC(=O)N(CCCCN)CC(=O)N(CC(=O)N(CCc1c[nH]c2ccccc12)CC(N)=O)[C@@H](C)c1ccccc1)[C@@H](C)c1ccccc1)[C@@H](C)c1ccccc1)[C@@H](C)c1ccccc1)[C@@H](C)c1ccccc1)C(=O)CN(CCc1c[nH]c2ccccc12)C(=O)CNCCCCN [Peptoid 17] (H-[Nlys][Gly(N(CH2)2(3-indolyl))][Nspe][Nlys][Nspe][Nspe][Nlys][Nspe][Nspe][Nlys][Nspe][Gly(N(CH2)2(3-indolyl))]-NH2)
result: 18.0 µM

---

Tested on: red blood cells
procedure-text: Hemolysis assay
Type: cell-based, Sprague-Dawley mouse
observable: HC50

- smiles: "C[C@@H](c1ccccc1)N(CC(N)=O)C(=O)CN(CCCCN)C(=O)CN(CCCCN)C(=O)CN(C(=O)CN(C(=O)CN(CCCCN)C(=O)CN(C(=O)CN(C(=O)CN(CCCCN)C(=O)CN(Cc1ccccc1)C(=O)CN(Cc1ccccc1)C(=O)CNCCCCN)[C@@H](C)c1ccccc1)[C@@H](C)c1ccccc1)[C@@H](C)c1ccccc1)[C@@H](C)c1ccccc1"
  HC50: ">100/>100 μM"

# ---- query molecule ----
query: Output reported HC50 of the molecule `C[C@@H](c1ccccc1)N(CC(N)=O)C(=O)CN(C(=O)CN(CCCCN)C(=O)CN(C(=O)CN(C(=O)CN(CCCCN)C(=O)CN(CCc1c[nH]c2ccccc12)C(=O)CN(C(=O)CN(CCCCN)C(=O)CN(C(=O)CN(CCCCN)C(=O)CNCCCCN)[C@@H](C)c1ccccc1)[C@@H](C)c1ccccc1)[C@@H](C)c1ccccc1)[C@@H](C)c1ccccc1)[C@@H](C)c1ccccc1` on red blood cells.
result: >100/>100 μM

---

Test system: red blood cells
procedure-text: Hemolysis assay
Type: cell-based, Sprague-Dawley mouse
Where a SMILES comes first, the peptide text is derived from it. [ ]: non-standard residue; d: D form. Gly(N(CH2)2(3-indolyl)) = O=C(O)CNCCc1c[nH]c2ccccc12; Nspe = C[C@H](NCC(=O)O)c1ccccc1; Nlys = NCCCCNCC(=O)O
observable: Hmax (100 μM) (%)
Number only, in %; omit the unit.

- compound: "C[C@@H](c1ccccc1)N(CC(=O)N(CCc1c[nH]c2ccccc12)CC(=O)N(CCCCN)CC(=O)N(CC(=O)N(CC(=O)N(CCCCN)CC(=O)N(CC(=O)N(CC(=O)N(CCCCN)CC(=O)N(CC(=O)N(CCc1c[nH]c2ccccc12)CC(N)=O)[C@@H](C)c1ccccc1)[C@@H](C)c1ccccc1)[C@@H](C)c1ccccc1)[C@@H](C)c1ccccc1)[C@@H](C)c1ccccc1)C(=O)CNCCCCN [Peptoid 16] (H-[Nlys][Nspe][Gly(N(CH2)2(3-indolyl))][Nlys][Nspe][Nspe][Nlys][Nspe][Nspe][Nlys][Nspe][Gly(N(CH2)2(3-indolyl))]-NH2)"
  assayed-system: "red blood cells"
  result: 100.3
- compound: "C[C@@H](c1ccccc1)N(CC(N)=O)C(=O)CN(C(=O)CN(CCCCN)C(=O)CN(C(=O)CN(C(=O)CN(CCCCN)C(=O)CN(CCc1c[nH]c2ccccc12)C(=O)CN(C(=O)CN(CCCCN)C(=O)CN(C(=O)CN(CCCCN)C(=O)CNCCCCN)[C@@H](C)c1ccccc1)[C@@H](C)c1ccccc1)[C@@H](C)c1ccccc1)[C@@H](C)c1ccccc1)[C@@H](C)c1ccccc1 [Peptoid 27]"
  assayed-system: "red blood cells"
  result: 5.9

query: Quickly give me recorded Hmax (100 μM) for C[C@@H](c1ccccc1)N(CC(N)=O)C(=O)CN(CCCCN)C(=O)CN(C(=O)CN(CCCCN)C(=O)CN(CCCCN)C(=O)CN(C(=O)CN(C(=O)CN(CCCCN)C(=O)CN(C(=O)CN(C(=O)CN(CCCCN)C(=O)CN(C(=O)CNCCc1c[nH]c2ccccc12)[C@@H](C)c1ccccc1)[C@@H](C)c1ccccc1)[C@@H](C)c1ccccc1)[C@@H](C)c1ccccc1)[C@@H](C)c1ccccc1)[C@@H](C)c1ccccc1 [Peptoid 63]
result: 12.7

query: Quickly give me recorded Hmax (100 μM) for C[C@@H](c1ccccc1)N(CC(=O)N(CCCCN)CC(=O)N(CC(=O)N(CC(=O)N(CCCCN)CC(=O)N(CC(=O)N(CC(=O)N(CCCCN)CC(N)=O)[C@@H](C)c1ccccc1)[C@@H](C)c1ccccc1)[C@@H](C)c1ccccc1)[C@@H](C)c1ccccc1)C(=O)CN(C(=O)CN(CCCCN)C(=O)CN(CCc1c[nH]c2ccccc12)C(=O)CNCCc1c[nH]c2ccccc12)[C@@H](C)c1ccccc1 [Peptoid 37-1] (H-[Gly(N(CH2)2(3-indolyl))][Gly(N(CH2)2(3-indolyl))][Nlys][Nspe][Nspe][Nlys][Nspe][Nspe][Nlys][Nspe][Nspe][Nlys]-NH2)
result: 86.6

query: Quickly give me recorded Hmax (100 μM) for C[C@@H](c1ccccc1)N(CC(N)=O)C(=O)CN(C(=O)CN(CCCCN)C(=O)CN(C(=O)CN(C(=O)CN(CCCCN)C(=O)CN(C(=O)CN(C(=O)CN(CCCCN)C(=O)CN(CCc1c[nH]c2ccccc12)C(=O)CN(CCc1c[nH]c2ccccc12)C(=O)CNCCCCN)[C@@H](C)c1ccccc1)[C@@H](C)c1ccccc1)[C@@H](C)c1ccccc1)[C@@H](C)c1ccccc1)[C@@H](C)c1ccccc1 [Peptoid 14-1]
result: 75.3

query: Quickly give me recorded Hmax (100 μM) for C[C@@H](c1ccccc1)N(CC(=O)N(CCCCN)CC(=O)N(CCCCN)CC(=O)N(CCc1c[nH]c2ccccc12)CC(=O)N(CCc1c[nH]c2ccccc12)CC(N)=O)C(=O)CN(CCCCN)C(=O)CN(C(=O)CN(C(=O)CN(CCCCN)C(=O)CN(C(=O)CN(C(=O)CNCCCCN)[C@@H](C)c1ccccc1)[C@@H](C)c1ccccc1)[C@@H](C)c1ccccc1)[C@@H](C)c1ccccc1 [Peptoid 28] (H-[Nlys][Nspe][Nspe][Nlys][Nspe][Nspe][Nlys][Nspe][Nlys][Nlys][Gly(N(CH2)2(3-indolyl))][Gly(N(CH2)2(3-indolyl))]-NH2)
result: 8.9
